# Subject of test: Aldehyde dehydrogenase, mitochondrial (Homo sapiens)
# Sequence (P05091 whole entry): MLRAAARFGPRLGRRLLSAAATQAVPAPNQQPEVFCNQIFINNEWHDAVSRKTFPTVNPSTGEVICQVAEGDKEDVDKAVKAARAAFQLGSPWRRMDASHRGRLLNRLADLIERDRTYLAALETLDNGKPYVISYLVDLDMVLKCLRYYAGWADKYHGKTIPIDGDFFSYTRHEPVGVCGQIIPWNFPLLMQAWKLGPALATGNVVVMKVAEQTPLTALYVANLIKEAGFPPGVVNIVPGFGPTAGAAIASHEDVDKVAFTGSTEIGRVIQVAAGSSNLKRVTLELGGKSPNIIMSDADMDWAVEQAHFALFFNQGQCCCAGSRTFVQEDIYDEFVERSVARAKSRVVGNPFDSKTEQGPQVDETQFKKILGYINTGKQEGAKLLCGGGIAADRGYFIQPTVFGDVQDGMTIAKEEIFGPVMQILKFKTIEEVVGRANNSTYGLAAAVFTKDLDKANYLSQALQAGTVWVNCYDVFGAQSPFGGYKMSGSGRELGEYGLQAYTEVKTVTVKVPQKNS
Endpoint name: IC50 (nM)
Give the number; nM is assumed, so skip it.

So the reported IC50 for "N=C(N)[Se]Cc1ccc(CN2C(=O)C(=O)c3cc(Br)cc(Br)c32)cc1" , on Aldehyde dehydrogenase, mitochondrial (Homo sapiens), turned out to be 2010

So the reported IC50 for "N=C(N)[Se]Cc1ccc(CN2C(=O)C(=O)c3cccc(C(F)(F)F)c32)cc1" , on Aldehyde dehydrogenase, mitochondrial (Homo sapiens), turned out to be 3490

So the reported IC50 for "Br.N=C(N)SCc1ccc(CN2C(=O)C(=O)c3cc(Cl)cc(Cl)c32)cc1" , on Aldehyde dehydrogenase, mitochondrial (Homo sapiens), turned out to be 1640

So the reported IC50 for "N=C(N)[Se]Cc1ccc(CN2C(=O)C(=O)c3cc(F)cc(Br)c32)cc1" , on Aldehyde dehydrogenase, mitochondrial (Homo sapiens), turned out to be 1920
